Attribute: pEC50
Molecular target: Bcl-2-like protein 2 (Homo sapiens)
Sequence (Q92843 whole entry): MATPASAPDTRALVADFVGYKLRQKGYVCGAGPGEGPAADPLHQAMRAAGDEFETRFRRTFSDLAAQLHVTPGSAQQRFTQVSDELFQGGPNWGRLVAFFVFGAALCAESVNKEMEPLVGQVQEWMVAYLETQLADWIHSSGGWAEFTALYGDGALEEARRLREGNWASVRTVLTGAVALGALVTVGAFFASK
Experiment: Bcl-W/Bim complex disruptors – biochemical, multiplexed, bead-based flow cytometry, HTS hits, confirmation (AID 2081)
Convention used: pEC50 is expressed as -log10 of the molar concentration.

Below, 3 compounds whose answers are already recorded.
[[record]]
compound_structure = "Cc1cc2nn(-c3cccc4ccccc34)nc2cc1N"
value_type = "pEC50"
number = 5.58

[[record]]
compound_structure = "Cc1nnc(Sc2cc(NCCO)c([N+](=O)[O-])c3nonc23)s1"
value_type = "pEC50"
number = 5.88

[[record]]
compound_structure = "COc1ccccc1NC1=C(NC(C)=O)C(=O)c2ccccc2C1=O"
value_type = "pEC50"
number = 5.47


Let us examine a further case.
# `CC(=O)OCCCNc1cc(Sc2nc3ccccc3s2)c2nonc2c1[N+](=O)[O-]` with Bcl-2-like protein 2 (Homo sapiens): pEC50 is 6.21
